Catalogue of molecules with associated IC50
MEASUREMENT TARGET: Falcipain-2 (Plasmodium falciparum, UniProt Q8I6U4)
Sequence (Q8I6U4 244-484): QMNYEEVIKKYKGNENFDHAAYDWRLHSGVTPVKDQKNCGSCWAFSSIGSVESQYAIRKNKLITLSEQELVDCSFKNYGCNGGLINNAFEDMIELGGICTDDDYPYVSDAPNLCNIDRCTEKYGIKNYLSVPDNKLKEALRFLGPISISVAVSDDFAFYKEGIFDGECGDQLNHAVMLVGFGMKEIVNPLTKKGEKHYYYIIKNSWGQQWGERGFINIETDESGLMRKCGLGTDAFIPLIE
TEST: falcipain-2 enzymatic assay (fluorogenic substrate H-D-VLR-AFC, endpoint)
EXPERIMENTAL CONTEXT: parasitic recombinant enzyme, pH 5.5, quenched after 60 minutes
Structures can show the parent of a compound that is named as a salt.

>  <MOLECULE>
CC(=O)N1CCC(N(NC(=O)OC(C)(C)C)c2nc(C#N)nc3c2ncn3C)CC1 [Example 20]

>  <MEASUREMENT TARGET>
Falcipain-2 (Plasmodium falciparum, UniProt Q8I6U4)

>  <EXPERIMENTAL VALUE>
1 to 2.5 nM

$$$$
>  <MOLECULE>
CN(C)CCCn1cnc2c(N(NC(=O)c3ccc(CN4CCN(C)CC4)cc3)C3CCCCC3)nc(C#N)nc21 [Example 31, trifluoroacetate]

>  <MEASUREMENT TARGET>
Falcipain-2 (Plasmodium falciparum, UniProt Q8I6U4)

>  <EXPERIMENTAL VALUE>
2.5 to 15 nM

$$$$

State, for Falcipain-2 (Plasmodium falciparum, UniProt Q8I6U4), measured IC50 of the molecule listed here: CN(CCn1cnc2c(N(NC(=O)OC(C)(C)C)C3CCCC3)nc(C#N)nc21)C(C)(C)C [Example 43, trifluoroacetate]
2.5 to 15 nM
